# cAMP EC50 (1.0% HSA) annotations
# Experimental System: T1, human GIP receptor (human, UniProt P48546 22-466)
# T1 sequence (looked up): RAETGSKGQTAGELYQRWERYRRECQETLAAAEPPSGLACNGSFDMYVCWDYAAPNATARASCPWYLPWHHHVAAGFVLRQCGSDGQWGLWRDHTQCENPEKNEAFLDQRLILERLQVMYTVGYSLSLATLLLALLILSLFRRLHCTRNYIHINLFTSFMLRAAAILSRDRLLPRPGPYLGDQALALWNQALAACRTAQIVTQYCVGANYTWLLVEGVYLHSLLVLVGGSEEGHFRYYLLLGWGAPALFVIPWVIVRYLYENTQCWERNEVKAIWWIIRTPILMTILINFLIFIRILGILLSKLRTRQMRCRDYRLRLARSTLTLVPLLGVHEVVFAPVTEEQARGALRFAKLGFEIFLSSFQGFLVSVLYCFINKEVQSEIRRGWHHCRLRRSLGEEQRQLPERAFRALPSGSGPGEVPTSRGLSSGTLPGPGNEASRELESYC
# Run Description: cell-based or functional assay
Numeric answer only, unit nM assumed.

Binder	cAMP EC50 (1.0% HSA) [nM]
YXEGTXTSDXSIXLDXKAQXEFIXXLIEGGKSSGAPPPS (Aib2, αMeF6, 4Pal10, αMeF13, Orn16, Aib20, D-Glu24, αMeY25; acylated K17, K31 (groups as in name); C-terminal amide)	12.8
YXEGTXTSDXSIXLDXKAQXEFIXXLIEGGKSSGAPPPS (Aib2, αMeF(2F)6, ChA10, αMeL13, Orn16, Aib20, D-Glu24, αMeY25; acylated K17, K31 (groups as in name); C-terminal amide)	4.97
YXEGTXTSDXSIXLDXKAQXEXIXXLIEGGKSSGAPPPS (Aib2, αMeF(2F)6, Ac5c10, αMeL13, Orn16, Aib20, αMeF22, D-Glu24, αMeY25; acylated K17, K31 (groups as in name); C-terminal amide)	2.81
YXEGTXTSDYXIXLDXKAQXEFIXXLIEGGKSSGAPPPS (Aib2, αMeF(2F)6, Aib11, αMeL13, Orn16, Aib20, D-Glu24, αMeY25; acylated K17, K31 (groups as in name); C-terminal amide)	1.81
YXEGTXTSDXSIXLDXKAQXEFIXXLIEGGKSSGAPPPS (Aib2, αMeF(2F)6, Ac4c10, αMeL13, Orn16, Aib20, D-Glu24, αMeY25; acylated K17, K31 (groups as in name); C-terminal amide)	4.68

# cAMP EC50 (1.0% HSA) lookup, item YXEGTXTSDXSIXLDXIAQXEFIXXLIKGGKSSGAPPPS (Aib2, αMeF(2F)6, 4Pal10, αMeL13, Orn16, Aib20, D-Glu24, αMeY25; acylated K28, K31 (groups as in name); C-terminal amide) 1.66

# cAMP EC50 (1.0% HSA) lookup, item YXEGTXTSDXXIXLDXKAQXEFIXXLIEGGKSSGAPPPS (Aib2, αMeF(2F)6, 4Pal10, Ac5c11, αMeL13, Orn16, Aib20, D-Glu24, αMeY25; acylated K17, K31 (groups as in name); C-terminal amide) 2.16

# cAMP EC50 (1.0% HSA) lookup, item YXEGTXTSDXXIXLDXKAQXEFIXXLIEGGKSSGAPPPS (Aib2, αMeF(2F)6, 4Pal10, Tle11, αMeL13, Orn16, Aib20, D-Glu24, αMeY25; acylated K17, K31 (groups as in name); C-terminal amide) 6.09

# credit: patent US20230265151A1
